Hello, the source for this data is patent US20090280138A1, in case you need it.

% of positive control peptide binding: recorded values
biological target: T1, MHC class I allele A*0301 (bound via biotin to streptavidin-coated plate); assay: iTopia peptide binding assay
T1 construct: iTopia MHC class I monomer on the plate; placeholder peptide and b2M removed, then reconstituted with test peptide and fresh b2M; also called A3; HLA A3
assay_metric: % of positive control peptide binding (%)

{"binder": "SAQPPLPDQ (also called Peptide No 27) [5T4 9 mer peptide 27 SAQPPLPDQ]", "assay_metric": "% of positive control peptide binding", "result": 0}
{"binder": "AALLAGRAL [5T4 9 mer peptide 101 AALLAGRAL]", "assay_metric": "% of positive control peptide binding", "result": 0}
{"binder": "FLTGNQLAV (also called Peptide No 49) [5T4 9 mer peptide 49 FLTGNQLAV]", "assay_metric": "% of positive control peptide binding", "result": 3}
{"binder": "QPPLPDQCP (also called Peptide No 28) [5T4 9 mer peptide 28 QPPLPDQCP]", "assay_metric": "% of positive control peptide binding", "result": 1}
